Field: pEC50. Provide a value for each of the compounds that follow.
Biological target: mutant CFTR (Homo sapiens, UniProt P13569, DEL508-508)
Construct: expressed in transfected cells
Sequence (P13569 with tags, fused parts or gaps DEL508-508): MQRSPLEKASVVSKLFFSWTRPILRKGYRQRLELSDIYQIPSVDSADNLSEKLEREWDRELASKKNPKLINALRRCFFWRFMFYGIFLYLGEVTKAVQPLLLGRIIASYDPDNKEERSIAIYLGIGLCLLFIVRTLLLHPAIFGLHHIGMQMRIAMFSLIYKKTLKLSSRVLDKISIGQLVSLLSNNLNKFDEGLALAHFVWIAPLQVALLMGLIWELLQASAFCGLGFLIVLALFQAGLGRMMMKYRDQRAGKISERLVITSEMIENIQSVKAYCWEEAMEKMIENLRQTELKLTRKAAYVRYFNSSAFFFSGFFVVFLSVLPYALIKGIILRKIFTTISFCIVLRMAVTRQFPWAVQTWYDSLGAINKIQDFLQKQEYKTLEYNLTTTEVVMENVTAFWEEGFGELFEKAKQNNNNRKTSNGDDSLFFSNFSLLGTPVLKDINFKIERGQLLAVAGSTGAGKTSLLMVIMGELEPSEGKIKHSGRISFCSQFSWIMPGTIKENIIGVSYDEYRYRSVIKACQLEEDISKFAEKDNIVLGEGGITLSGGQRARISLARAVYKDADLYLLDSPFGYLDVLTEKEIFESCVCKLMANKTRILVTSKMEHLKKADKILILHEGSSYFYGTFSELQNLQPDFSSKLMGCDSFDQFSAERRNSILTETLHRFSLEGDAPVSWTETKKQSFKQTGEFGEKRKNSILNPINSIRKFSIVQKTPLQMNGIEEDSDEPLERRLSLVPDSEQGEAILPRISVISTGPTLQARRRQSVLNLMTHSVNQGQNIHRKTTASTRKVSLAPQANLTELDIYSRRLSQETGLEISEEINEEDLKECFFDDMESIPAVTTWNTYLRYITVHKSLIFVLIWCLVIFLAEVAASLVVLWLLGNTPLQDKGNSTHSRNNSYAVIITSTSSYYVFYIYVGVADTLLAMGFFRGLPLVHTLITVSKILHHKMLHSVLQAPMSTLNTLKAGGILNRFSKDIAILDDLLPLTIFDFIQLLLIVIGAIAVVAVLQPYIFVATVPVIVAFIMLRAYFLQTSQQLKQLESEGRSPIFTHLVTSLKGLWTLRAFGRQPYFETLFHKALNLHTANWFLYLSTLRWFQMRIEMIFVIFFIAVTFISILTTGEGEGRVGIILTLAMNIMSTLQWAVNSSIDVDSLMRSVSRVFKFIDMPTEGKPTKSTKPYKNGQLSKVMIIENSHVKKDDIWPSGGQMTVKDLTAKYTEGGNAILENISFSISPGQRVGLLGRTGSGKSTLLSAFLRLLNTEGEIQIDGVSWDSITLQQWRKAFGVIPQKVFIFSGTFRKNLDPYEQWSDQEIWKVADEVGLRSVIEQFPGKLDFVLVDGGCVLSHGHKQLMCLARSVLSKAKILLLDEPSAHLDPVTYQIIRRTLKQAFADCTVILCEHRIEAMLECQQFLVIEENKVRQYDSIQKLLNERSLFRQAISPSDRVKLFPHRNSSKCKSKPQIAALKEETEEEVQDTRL
Assay: Fluorescence (HS-YFP) assay for CFTR activity, corrector assay
Type: cell-based
Conditions: CFBE41o- and FRT cells with stable expression of mutant CFTR, read-out: activity (EC50)
pEC50: −log10 of the molar value.

Consider the compound CN(C(=O)c1cccc(-n2nc(C(F)(F)F)c3c2CCN(Cc2ccccc2)C3)c1)c1ccc2c(c1)OCO2 and give its measured pEC50. > 6.00

Can you share its pEC50? I mean this compound: COC(=O)c1cccc(S(=O)(=O)N2CCc3c(c(C(F)(F)F)nn3-c3cccc(C(=O)N(C)c4ccc5c(c4)OCO5)c3)C2)c1 > 6.00

Data request, read-out pEC50, for COc1cc(N(C)C(=O)c2cccc(-n3nc(C(F)(F)F)c4c3C(Oc3ccc(C(=O)O)cc3)CCC4)c2)ccn1 (racemic) 5.70 to 6.00

I'd like to know its pEC50. The compound in question is CN(C(=O)c1cccc(-n2nc(C(F)(F)F)c3c2C[C@H]2CC[C@@H]3N2C(=O)OC(C)(C)C)c1)c1ccc2c(c1)OCO2 (single isomer, unassigned) > 6.00

Look at this compound and give its reported pEC50. COCCS(=O)(=O)N1CCc2c(c(C(F)(F)F)nn2-c2cccc(C(=O)N(C)c3ccc4c(c3)OCO4)c2)C1 > 6.00

Quick one: pEC50 of COc1ccc(N(C)C(=O)c2cccc(-n3nc(C(F)(F)F)c4c3C(Oc3ccc(C(=O)O)cc3)CCC4)c2)cc1OC (racemic) ? < 5.70

Can you share its pEC50? I mean this compound: CN(C(=O)c1cccc(-n2nc(C(F)(F)F)c3c2CCN(C(=O)C(C)(C)C(F)(F)F)C3)c1)c1ccc2c(c1)OCO2 > 6.00

Value lookup for pEC50; key = CC(=O)Nc1ccc(N(C)C(=O)c2cccc(-n3nc(C(F)(F)F)c4c3CCN(C)C4)c2)cc1O < 5.70

Value lookup for pEC50; key = CN(C(=O)c1cccc(-n2nc(C(F)(F)F)c3c2C(n2cc(C(=O)O)ccc2=O)COC3)c1)c1ccc2c(c1)OC(F)(F)O2 (racemic) 5.70 to 6.00

Look up pEC50: CN(C(=O)c1cccc(-n2nc(C(F)(F)F)c3c2CCN(CC2CC2)C3)c1)c1ccc2c(c1)OCO2 > 6.00

Param item = Cc1n[nH]c(C)c1S(=O)(=O)N1CCc2c(c(C(F)(F)F)nn2-c2cccc(C(=O)N(C)c3ccc4c(c3)OCO4)c2)C1 ; retrieve measured pEC50. > 6.00

# get_value(readout='pEC50', item= CN(C(=O)c1cccc(-n2nc(C(F)(F)F)c3c2C(Oc2ccc(C(=O)O)cc2)CCC3)c1)c1ccc2c(c1)OC(F)(F)O2 (single isomer, unassigned) [Compound 150] ) > 6.00

Fill blank: measured pEC50 of the compound CN(C(=O)c1cccc(-n2nc(C(F)(F)F)c3c2C(Oc2cc(C(=O)O)ccn2)COC3)c1)c1ccc2c(c1)OC(F)(F)O2 (racemic) is ____. > 6.00

----------
Target: mutant CFTR (Homo sapiens, UniProt P13569, DEL508-508)
Construct: expressed in transfected cells
Assay: Fluorescence (HS-YFP) assay for CFTR activity, corrector assay
Type: cell-based
Conditions: CFBE41o- and FRT cells with stable expression of mutant CFTR, read-out: activity (EC50)
pEC50: −log10 of the molar value.
Give pEC50 for every item shown.

What value of pEC50 on mutant CFTR (Homo sapiens, UniProt P13569, DEL508-508) does CN(C(=O)c1cccc(-n2nc(C(F)F)c3c2C(Oc2ccc(C(=O)O)cc2)COC3)c1)c1ccc2c(c1)OC(F)(F)O2 (racemic) [Compound 263] have? > 6.00

Provide the documented pEC50 with mutant CFTR (Homo sapiens, UniProt P13569, DEL508-508) as the system for Cc1nc2ccc(N(C)C(=O)c3cccc(-n4nc(C(F)(F)F)c5c4C(Oc4ccc(C(=O)O)cc4)CCC5)c3)cc2o1 (stereo not drawn) [Compound 157] > 6.00

Notebook entry, mutant CFTR (Homo sapiens, UniProt P13569, DEL508-508) assay: pEC50 of CN(C(=O)c1cccc(-n2nc(C(F)(F)F)c3c2C(Oc2ccc(C(=O)O)cc2)COC3)c1)c1ccnc(OC(F)F)c1 (single isomer, unassigned) [Compound 291] = ? 5.70 to 6.00
